Tested on: 3797 S. aureus (GISA)
Test: MIC, broth microdilution in Meuller-Hinton broth (NCCLS)
Assay type: cell-based, Staphylococus aureus
Conditions: glycopeptides-intermediate clinical isolate
Reported MIC 3797 S. aureus (GISA) is given for each of the following molecules.

# MOLECULE, MIC 3797 S. aureus (GISA), µg/mL
measured = [
    ("CNC(CC(C)C)C(=O)NC1C(=O)NC(CC(N)=O)C(=O)NC2C(=O)NC3C(=O)NC(C(=O)NC(C(=O)NCc4ccc(F)cc4)c4cc(O)cc(O)c4-c4cc3ccc4O)C(O)c3ccc(c(Cl)c3)Oc3cc2cc(c3OC2OC(CO)C(O)C(O)C2OC2CC(C)(N)C(O)C(C)O2)Oc2ccc(cc2Cl)C1O (stereo not drawn) [Compound 288]", 4),
    ("CCCCOc1ccc(CNCC(=O)NC2(C)CC(OC3C(Oc4c5cc6cc4Oc4ccc(cc4Cl)C(O)C4NC(=O)C(NC(=O)C6NC(=O)C(CC(N)=O)NC(=O)C(NC(=O)C(CC(C)C)NC)C(O)c6ccc(c(Cl)c6)O5)c5ccc(O)c(c5)-c5c(O)cc(O)cc5C(C(=O)O)NC4=O)OC(CO)C(O)C3O)OC(C)C2O)cc1 (stereo not drawn) [Compound 218]", 0.5),
    ("CCCCc1ccc(CNCC(=O)NC2(C)CC(OC3C(Oc4c5cc6cc4Oc4ccc(cc4Cl)C(O)C(NC(=O)C(CC(C)C)NC)C(=O)NC(CC(N)=O)C(=O)NC6C(=O)NC4C(=O)NC(C(=O)NC(C(=O)O)c6cc(O)cc(O)c6-c6cc4ccc6O)C(OC4CC(C)(N)C(O)C(C)O4)c4ccc(cc4)O5)OC(CO)C(O)C3O)OC(C)C2O)cc1 (stereo not drawn) [Compound 57, N′-p-BuBnHNCH2CO eremomycin]", 4),
    ("CNC(CC(C)C)C(=O)NC1C(=O)NC(CC(N)=O)C(=O)NC2C(=O)NC3C(=O)NC(C(=O)NC(C(=O)O)c4cc(O)cc(O)c4-c4cc3ccc4O)C(O)c3ccc(c(Cl)c3)Oc3cc2cc(c3OC2OC(CO)C(O)C(O)C2OC2CC(C)(NC(=O)CNCc3ccc(C(F)(F)F)cc3)C(O)C(C)O2)Oc2ccc(cc2Cl)C1O (stereo not drawn) [Compound 290]", 4),
    ("CCCCc1ccc(CNCC(=O)NC2(C)CC(OC3C(Oc4c5cc6cc4Oc4ccc(cc4Cl)C(O)C(NC(=O)C(CC(C)C)NC)C(=O)NC(CC(N)=O)C(=O)NC6C(=O)NC4C(=O)NC(C(=O)NC(C(=O)NC(C)C67CC8CC(CC(C8)C6)C7)c6cc(O)cc(O)c6-c6cc4ccc6O)C(OC4CC(C)(N)C(O)C(C)O4)c4ccc(cc4)O5)OC(CO)C(O)C3O)OC(C)C2O)cc1 (stereo not drawn) [Compound 264]", 8),
    ("CNC(CC(C)C)C(=O)NC1C(=O)NC(CC(N)=O)C(=O)NC2C(=O)NC3C(=O)NC(C(=O)NC(C(=O)O)c4cc(O)cc(O)c4-c4cc3ccc4O)C(O)c3ccc(c(Cl)c3)Oc3cc2cc(c3OC2OC(CO)C(O)C(O)C2OC2CC(C)(NC(=O)CNCc3ccc(F)cc3)C(O)C(C)O2)Oc2ccc(cc2Cl)C1O (stereo not drawn) [Compound 291]", 4),
]
